What IC50 was measured for each of the following?

Recall the recorded IC50 for `CC(C)c1ccc(C(=O)Nc2cccc([C@H](C)Nc3cnc4cnn(C)c4n3)c2)cn1` with Human PDGFRβ, cytoplasmic domain (GST-PDGFRβ) (Homo sapiens, UniProt P09619) and state it.
Sequence (P09619 with tags, fused parts or gaps): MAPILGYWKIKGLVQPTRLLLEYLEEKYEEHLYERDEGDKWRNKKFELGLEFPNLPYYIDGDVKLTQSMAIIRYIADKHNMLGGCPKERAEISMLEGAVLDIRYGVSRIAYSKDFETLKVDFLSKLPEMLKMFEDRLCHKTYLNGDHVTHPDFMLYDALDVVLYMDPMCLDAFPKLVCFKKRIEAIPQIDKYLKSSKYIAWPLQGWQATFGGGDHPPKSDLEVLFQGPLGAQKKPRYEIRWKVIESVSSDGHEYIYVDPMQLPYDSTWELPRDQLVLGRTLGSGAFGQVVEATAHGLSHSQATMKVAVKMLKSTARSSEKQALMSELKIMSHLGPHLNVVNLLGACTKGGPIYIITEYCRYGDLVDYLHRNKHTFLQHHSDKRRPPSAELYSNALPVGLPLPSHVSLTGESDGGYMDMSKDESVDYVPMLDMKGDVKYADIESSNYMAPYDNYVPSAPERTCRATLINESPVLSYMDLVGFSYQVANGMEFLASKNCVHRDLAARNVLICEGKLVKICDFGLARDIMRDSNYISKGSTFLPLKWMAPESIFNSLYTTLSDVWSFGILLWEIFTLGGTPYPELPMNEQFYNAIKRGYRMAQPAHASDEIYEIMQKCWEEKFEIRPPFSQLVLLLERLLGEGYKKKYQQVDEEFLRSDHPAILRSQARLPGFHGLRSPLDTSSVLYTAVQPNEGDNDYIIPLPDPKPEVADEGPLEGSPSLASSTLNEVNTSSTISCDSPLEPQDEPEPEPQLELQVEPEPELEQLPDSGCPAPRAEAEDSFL
< 300 nM

Recall the recorded IC50 for `CCn1cc2ncc(N[C@@H](C)c3cc(NC(=O)c4ccc(CN5CCN(C)CC5)c(C)c4)ccc3C)nc2n1` with Human PDGFRβ, cytoplasmic domain (GST-PDGFRβ) (Homo sapiens, UniProt P09619) and state it.
< 300 nM

Recall the recorded IC50 for `Cc1cncc(NC(=O)Nc2cccc([C@H](C)Nc3cnc4cnn(C)c4n3)c2)c1` with Human PDGFRβ, cytoplasmic domain (GST-PDGFRβ) (Homo sapiens, UniProt P09619) and state it.
< 300 nM

Recall the recorded IC50 for `CCn1cc2ncc(N[C@@H](C)c3cccc(NC(=O)Cc4cc(F)ccc4F)c3)nc2n1` with Human PDGFRβ, cytoplasmic domain (GST-PDGFRβ) (Homo sapiens, UniProt P09619) and state it.
300 to 1000 nM

Recall the recorded IC50 for `Cc1cncc(C(=O)Nc2cccc([C@H](C)Nc3cnc4cn(-c5cccnc5)nc4n3)c2)c1` with Human PDGFRβ, cytoplasmic domain (GST-PDGFRβ) (Homo sapiens, UniProt P09619) and state it.
< 300 nM

Recall the recorded IC50 for `Cc1cncc(C(=O)Nc2cccc([C@H](C)Nc3cnc4[nH]c(C5CC5)nc4c3)c2)c1` with Human PDGFRβ, cytoplasmic domain (GST-PDGFRβ) (Homo sapiens, UniProt P09619) and state it.
< 300 nM

----------
What pIC50 was measured for each of the following?
molecular target: Human PDGFRα, cytoplasmic domain (GST-PDGFRα) (Homo sapiens, UniProt P16234); test: Human PDGFRα biochemical inhibition assay (off-chip Mobility Shift Assay)
Sequence (P16234 550-1089 T674I): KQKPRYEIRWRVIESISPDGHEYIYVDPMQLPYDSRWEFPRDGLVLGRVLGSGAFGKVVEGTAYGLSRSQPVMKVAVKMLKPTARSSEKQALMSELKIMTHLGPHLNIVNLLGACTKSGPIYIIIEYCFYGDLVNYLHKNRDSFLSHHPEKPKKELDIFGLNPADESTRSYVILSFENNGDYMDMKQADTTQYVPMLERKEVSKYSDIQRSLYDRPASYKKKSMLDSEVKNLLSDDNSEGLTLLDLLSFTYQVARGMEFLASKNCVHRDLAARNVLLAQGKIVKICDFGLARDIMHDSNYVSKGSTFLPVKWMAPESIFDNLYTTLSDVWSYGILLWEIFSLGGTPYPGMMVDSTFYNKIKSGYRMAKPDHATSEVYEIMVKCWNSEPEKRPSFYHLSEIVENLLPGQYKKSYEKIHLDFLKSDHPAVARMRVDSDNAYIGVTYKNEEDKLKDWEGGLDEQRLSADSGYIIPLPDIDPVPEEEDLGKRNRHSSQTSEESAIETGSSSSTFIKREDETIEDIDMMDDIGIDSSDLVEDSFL
pIC50: −log10 of the molar value.

Recall the recorded pIC50 for `CNc1ccc(C(=O)Nc2cccc([C@H](C)Nc3cnc4cnn(C)c4n3)c2)cn1` with Human PDGFRα, cytoplasmic domain (GST-PDGFRα) (Homo sapiens, UniProt P16234) and state it.
> 6.52

Recall the recorded pIC50 for `CCOc1ccc(C(=O)Nc2cccc([C@H](C)Nc3cnc4cnn(C)c4n3)c2)cc1C` with Human PDGFRα, cytoplasmic domain (GST-PDGFRα) (Homo sapiens, UniProt P16234) and state it.
> 6.52

Recall the recorded pIC50 for `CCn1cc2ncc(N[C@@H](C)c3cccc(NC(=O)c4ccc(Cl)c(C)c4)c3)nc2n1` with Human PDGFRα, cytoplasmic domain (GST-PDGFRα) (Homo sapiens, UniProt P16234) and state it.
> 6.52

Recall the recorded pIC50 for `CCn1cc2ncc(N[C@@H](C)c3cc(NC(=O)Cc4ccc(C(C)(C)O)cn4)ccc3F)nc2n1` with Human PDGFRα, cytoplasmic domain (GST-PDGFRα) (Homo sapiens, UniProt P16234) and state it.
≤ 6.00

Recall the recorded pIC50 for `CCn1cc2ncc(N[C@@H](C)c3cccc(NC(=O)c4cnc(C5CC5)c(C)c4)c3)nc2n1` with Human PDGFRα, cytoplasmic domain (GST-PDGFRα) (Homo sapiens, UniProt P16234) and state it.
> 6.52

Recall the recorded pIC50 for `C[C@H](Nc1cnc2cnn(C)c2n1)c1cccc(NC(=O)c2ccc(C(F)(F)F)nc2)c1` with Human PDGFRα, cytoplasmic domain (GST-PDGFRα) (Homo sapiens, UniProt P16234) and state it.
> 6.52

----------
target: Human PDGFRβ, cytoplasmic domain (GST-PDGFRβ) (Homo sapiens, UniProt P09619)
What IC50 was measured for each of the following?

# get_value(readout='IC50', item= `CCn1cc2ncc(N[C@@H](C)c3cc(NC(=O)Cc4cncc(Cl)c4)ccc3F)nc2n1` )
300 to 1000 nM

# get_value(readout='IC50', item= `CCn1cc2ncc(N[C@@H](C)c3cccc(NC(=O)c4cnc(N5CCN(C)CC5)c(Cl)c4)c3)nc2n1` )
< 300 nM

# get_value(readout='IC50', item= `CCn1cc2ncc(N[C@@H](C)c3cc(NC(=O)c4ccc(CN5CCN(C)CC5)c(C)c4)ccc3F)nc2n1` )
< 300 nM

# get_value(readout='IC50', item= `CCn1cc2ncc(N[C@@H](C)c3cccc(NC(=O)Cc4ccc(F)c(C)n4)c3)nc2n1` )
300 to 1000 nM

# get_value(readout='IC50', item= Cc1cncc(C(=O)Nc2cccc([C@H](C)Nc3cnc4cnn(C5CCOC5)c4n3)c2)c1 (some centres unmarked) )
≥ 1000 nM

# get_value(readout='IC50', item= `CCn1cc2ncc(N[C@@H](C)c3cccc(NC(=O)c4ccc(Cl)c(F)c4)c3)nc2n1` )
< 300 nM

# get_value(readout='IC50', item= `C[C@H](Nc1cnc2cnn(C)c2n1)c1cccc(NC(=O)c2ccc(S(C)(=O)=O)cc2)c1` )
300 to 1000 nM

# get_value(readout='IC50', item= `CCn1cc2ncc(N[C@@H](C)c3cccc(NC(=O)c4ccc(CN5CCOCC5)c(C)c4)c3)nc2n1` )
< 300 nM

----------
# IC50 per entry for Human PDGFRβ, cytoplasmic domain (GST-PDGFRβ) (Homo sapiens, UniProt P09619)

Recall the recorded IC50 for `CSc1ccc(C(=O)Nc2cccc([C@H](C)Nc3cnc4cnn(C)c4n3)c2)cn1` with Human PDGFRβ, cytoplasmic domain (GST-PDGFRβ) (Homo sapiens, UniProt P09619) and state it.
< 300 nM

Recall the recorded IC50 for `CCn1cc2ncc(N[C@@H](C)c3cccc(NC(=O)Nc4cnn(CC(C)C)c4)c3)nc2n1` with Human PDGFRβ, cytoplasmic domain (GST-PDGFRβ) (Homo sapiens, UniProt P09619) and state it.
300 to 1000 nM

Recall the recorded IC50 for `CCn1cc2ncc(N[C@@H](C)c3cccc(NC(=O)c4ccc(CN5CCCC5)c(Cl)c4)c3)nc2n1` with Human PDGFRβ, cytoplasmic domain (GST-PDGFRβ) (Homo sapiens, UniProt P09619) and state it.
< 300 nM

Recall the recorded IC50 for `CCn1cc2ncc(N[C@@H](C)c3cc(NC(=O)c4ccc(CN5CCN(C)CC5)c(C(F)(F)F)c4)ccc3F)nc2n1` with Human PDGFRβ, cytoplasmic domain (GST-PDGFRβ) (Homo sapiens, UniProt P09619) and state it.
< 300 nM

Recall the recorded IC50 for `Cc1cncc(C(=O)Nc2ccc(F)c([C@H](C)Nc3cnc4cnn(C)c4n3)c2)c1` with Human PDGFRβ, cytoplasmic domain (GST-PDGFRβ) (Homo sapiens, UniProt P09619) and state it.
< 300 nM

Recall the recorded IC50 for `CC(C)c1cc(C(=O)Nc2cccc([C@H](C)Nc3cnc4[nH]ccc4n3)c2)no1` with Human PDGFRβ, cytoplasmic domain (GST-PDGFRβ) (Homo sapiens, UniProt P09619) and state it.
< 300 nM

Recall the recorded IC50 for `CSc1ccc(C(=O)Nc2cccc([C@H](C)Nc3cnc4cnn(C)c4n3)c2)cc1SC` with Human PDGFRβ, cytoplasmic domain (GST-PDGFRβ) (Homo sapiens, UniProt P09619) and state it.
< 300 nM

Recall the recorded IC50 for `Cc1cc(C(=O)Nc2cccc([C@H](C)Nc3cnc4cnn(C)c4n3)c2)ccc1CN1CCSCC1` with Human PDGFRβ, cytoplasmic domain (GST-PDGFRβ) (Homo sapiens, UniProt P09619) and state it.
< 300 nM

Recall the recorded IC50 for `CCn1cc2ncc(N[C@@H](C)c3cc(NC(=O)c4ccc(C5CC5)nc4)ccc3F)nc2n1` with Human PDGFRβ, cytoplasmic domain (GST-PDGFRβ) (Homo sapiens, UniProt P09619) and state it.
< 300 nM

Recall the recorded IC50 for `CCn1cc2ncc(N[C@@H](C)c3cccc(NC(=O)c4ccc(CN5C[C@@H](C)O[C@@H](C)C5)c(C)c4)c3)nc2n1` with Human PDGFRβ, cytoplasmic domain (GST-PDGFRβ) (Homo sapiens, UniProt P09619) and state it.
300 to 1000 nM

----------
# IC50 per entry for Human PDGFRβ, cytoplasmic domain (GST-PDGFRβ) (Homo sapiens, UniProt P09619)

# get_value(readout='IC50', item= `CCn1cc2ncc(N[C@@H](C)c3cccc(NC(=O)c4ccc(CN5CCOCC5)cc4)c3)nc2n1` )
0.3 to 1 µM

# get_value(readout='IC50', item= `CCn1cc2ncc(N[C@@H](C)c3cccc(NC(=O)Cc4ccc(F)cn4)c3)nc2n1` )
≥ 1 µM

# get_value(readout='IC50', item= `CCn1cc2ncc(N[C@@H](C)c3cc(NC(=O)c4cc(C)c(CN5CCOCC5)c(F)c4)ccc3C)nc2n1` )
< 0.3 µM

Measured values drawn from patent US20230102554A1 for this set.
